Recorded measurements of IC50, one per entry
system: Plasmodium falciparum; test: Antimalarial activity against chloroquine-resistant Plasmodium falciparum W2 after 48 hrs by LDH reporter assay; assay type: functional, organism-based; conditions: W2, 48 h, read-out: pIC50 (converted)
Please give a number only; it is taken to be in nM.

{"molecule": "O=C(NO)c1ccccc1O [SALICYLHYDROXAMIC ACID]", "IC50 (nM)": 51300}
{"molecule": "O=C(CCCCCCC(=O)NO)NO [SUBEROHYDROXAMIC ACID]", "IC50 (nM)": 1510}
{"molecule": "CC(/C=C/C(=O)NO)=C\\[C@@H](C)C(=O)c1ccc(N(C)C)cc1", "IC50 (nM)": 9.77}

// switching to the query molecule
Query string: Can you share its IC50? I mean this molecule: O=C(CCCCCCCC(=O)NO)NO [AZELAIC BIS HYDROXAMIC ACID]
Result string: 3890
